Reported μ/κ Ratio (binding affinity for KOR versus MOR) by item:
Target: cloned human kappa (hKOR) receptor (Homo sapiens)
Construct: expressed in transfected cells; host or cells: HN9.10 (mouse hippocampal neuroblastoma), stably transfected
Sequence (P41145 whole entry): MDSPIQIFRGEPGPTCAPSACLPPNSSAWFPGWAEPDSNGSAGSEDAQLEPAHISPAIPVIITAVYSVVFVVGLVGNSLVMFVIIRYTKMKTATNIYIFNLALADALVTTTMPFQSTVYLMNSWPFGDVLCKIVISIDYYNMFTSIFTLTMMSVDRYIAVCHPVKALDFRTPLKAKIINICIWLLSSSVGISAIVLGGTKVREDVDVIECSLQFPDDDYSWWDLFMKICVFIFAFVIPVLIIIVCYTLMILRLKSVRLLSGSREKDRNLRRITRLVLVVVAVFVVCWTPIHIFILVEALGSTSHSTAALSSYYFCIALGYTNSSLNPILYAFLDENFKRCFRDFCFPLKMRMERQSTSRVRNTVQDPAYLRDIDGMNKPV
Assay: biochemical
Type: binding
Conditions: Ki MOR / Ki KOR
Where a SMILES comes first, the peptide text is derived from it. [ ]: non-standard residue; d: D form. The star is where a group is joined. dPhe(4-CH2NH2) = NCc1ccc(C[C@@H](N)C(=O)O)cc1; dNle = CCCC[C@@H](N)C(=O)O; NHCH2CH2OH = OCCN*

compound	recordedValue
CCCC[C@@H](NC(=O)[C@@H](Cc1ccccc1)NC(=O)[C@H](N)Cc1ccccc1)C(=O)N[C@H](Cc1ccc(CN)cc1)C(=O)NCC [Peptide 55, H-D-Phe-D-Phe-D-Nle-D-Amf-NHEt] (H-[dF][dF][dNle][dPhe(4-CH2NH2)]-NHEt)	12,500

μ/κ Ratio (binding affinity for KOR versus MOR) in this record for CCCC[C@@H](NC(=O)[C@@H](Cc1ccccc1)NC(=O)[C@H](N)Cc1ccccc1)C(=O)N[C@H](CCCNC(=N)N)C(=O)NCC [Peptide 1, H-D-Phe-D-Phe-D-Nle-D-Arg-NHEt] (H-[dF][dF][dNle][dR]-NHEt) : 38,000

μ/κ Ratio (binding affinity for KOR versus MOR) in this record for CCCC[C@@H](NC(=O)[C@@H](Cc1ccccc1)NC(=O)[C@H](N)Cc1ccccc1)C(=O)N[C@H](CCCNC(=N)N)C(=O)NCCO [Peptide 9, H-D-Phe-D-Phe-D-Nle-D-Arg-NHhEt] (H-[dF][dF][dNle][dR]-NHCH2CH2OH) : 2,500

μ/κ Ratio (binding affinity for KOR versus MOR) in this record for CC(C)C[C@@H](NC(=O)[C@@H](Cc1ccccc1)NC(=O)[C@H](N)Cc1ccccc1)C(=O)N[C@H](CCCN)C(=O)N1CCOCC1 [Peptide 57, H-D-Phe-D-Phe-D-Leu-D-Onn-Mor] : 28,000

###

Molecular target: cloned human mu opioid (hMOR) receptor (Homo sapiens)
Construct: expressed in transfected cells; host or cells: HN9.10 (mouse hippocampal neuroblastoma), stably transfected
Assay: Competition binding at cloned hMOR, displacement of 3H-DAMGO
Settings: hMOR stably expressed in HN.9.10 cells, read-out: Ki MOR
Where a SMILES comes first, the peptide text is derived from it. [ ]: non-standard residue; d: D form. The star is where a group is joined. dPhe(4-F) = N[C@H](Cc1ccc(F)cc1)C(=O)O; d2Nal = N[C@H](Cc1ccc2ccccc2c1)C(=O)O; dNle = CCCC[C@@H](N)C(=O)O; Morpholide = C1CN(*)CCO1; Piperidide = C1CCN(*)CC1
Reported pKi by item:
Scale note: pKi = -log10(concentration in M).

compound	pKi
CCCC[C@@H](NC(=O)[C@@H](Cc1ccccc1)NC(=O)[C@H](N)Cc1ccccc1)C(=O)N[C@H](CCCNC(=N)N)C(=O)N1CCCCC1 [Peptide 12, H-D-Phe-D-Phe-D-Nle-D-Arg-Pip] (H-[dF][dF][dNle][dR]-Piperidide)	5.98

pKi in this record for CC(C)C[C@@H](NC(=O)[C@@H](Cc1ccc2ccccc2c1)NC(=O)[C@H](N)Cc1ccc(F)cc1)C(=O)N[C@H](CCCNC(=N)N)C(=O)N1CCOCC1 [Peptide 62, H-D-4Fpa-D-2Nal-D-Leu-D-Arg-Mor] (H-[dPhe(4-F)][d2Nal][dL][dR]-Morpholide) : 5.94

###

Reported Ki by item:
Molecular target: cloned human mu opioid (hMOR) receptor (Homo sapiens)
Where a SMILES comes first, the peptide text is derived from it. [ ]: non-standard residue; d: D form. The star is where a group is joined. dPhe(4-CH2NH2) = NCc1ccc(C[C@@H](N)C(=O)O)cc1; dNle = CCCC[C@@H](N)C(=O)O; NHPr = CCCN*
Lab book: enter the figure in nM, no units written.

compound	recordedValue
CCCC[C@@H](NC(=O)[C@@H](Cc1ccccc1)NC(=O)[C@H](N)Cc1ccccc1)C(=O)N[C@H](CCCNC(=N)N)C(=O)NCCC [Peptide 3, H-D-Phe-D-Phe-D-Nle-D-Arg-NHPr] (H-[dF][dF][dNle][dR]-NHPr)	1640

# evaluate next
Ki in this record for CCCC[C@@H](NC(=O)[C@@H](Cc1ccccc1)NC(=O)[C@H](N)Cc1ccccc1)C(=O)N[C@H](Cc1ccc(CN)cc1)C(=O)NCC [Peptide 55, H-D-Phe-D-Phe-D-Nle-D-Amf-NHEt] (H-[dF][dF][dNle][dPhe(4-CH2NH2)]-NHEt) : 1750

###

pKi tested on cloned human mu opioid (hMOR) receptor (Homo sapiens, UniProt P35372): recorded values
Sequence (P35372 whole entry): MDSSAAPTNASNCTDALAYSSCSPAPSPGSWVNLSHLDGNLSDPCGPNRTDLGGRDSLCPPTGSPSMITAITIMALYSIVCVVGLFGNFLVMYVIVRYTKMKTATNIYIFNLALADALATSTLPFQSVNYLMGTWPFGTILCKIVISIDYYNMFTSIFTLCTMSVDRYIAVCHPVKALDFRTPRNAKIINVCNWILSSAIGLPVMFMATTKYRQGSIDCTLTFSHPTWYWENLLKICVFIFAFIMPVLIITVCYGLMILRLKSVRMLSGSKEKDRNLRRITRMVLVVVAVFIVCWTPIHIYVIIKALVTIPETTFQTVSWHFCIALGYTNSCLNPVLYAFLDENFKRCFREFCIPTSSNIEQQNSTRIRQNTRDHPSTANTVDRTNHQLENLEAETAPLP
Where a SMILES comes first, the peptide text is derived from it. [ ]: non-standard residue; d: D form. The star is where a group is joined. NH(3-picolyl) = c1cncc(CN*)c1; NH(4-picolyl) = c1cc(CN*)ccn1; dNle = CCCC[C@@H](N)C(=O)O; X2 = OC1CCN(*)CC1; X1 = C1CN(*)CCS1; NHcPr = C1CC1N*; NHBu = CCCCN*
Scale note: pKi = -log10(concentration in M).

As a guide, the following entries are already answered.
compound	attributeMeasured	recordedValue
CCCC[C@@H](NC(=O)[C@@H](Cc1ccccc1)NC(=O)[C@H](N)Cc1ccccc1)C(=O)N[C@H](CCCNC(=N)N)C(=O)NCc1ccncc1 [Peptide 8, H-D-Phe-D-Phe-D-Nle-D-Arg-NH(4-Pic)] (H-[dF][dF][dNle][dR]-{NH(4-picolyl)})	pKi	5.44
CCCCNC(=O)[C@@H](CCCNC(=N)N)NC(=O)[C@@H](CCCC)NC(=O)[C@@H](Cc1ccccc1)NC(=O)[C@H](N)Cc1ccccc1 [Peptide 4, H-D-Phe-D-Phe-D-Nle-D-Arg-NHBu] (H-[dF][dF][dNle][dR]-NHBu)	pKi	5.86
CCCC[C@@H](NC(=O)[C@@H](Cc1ccccc1)NC(=O)[C@H](N)Cc1ccccc1)C(=O)N[C@H](CCCNC(=N)N)C(=O)N1CCC(O)CC1 [Peptide 11, H-D-Phe-D-Phe-D-Nle-D-Arg-4-HyP] (H-[dF][dF][dNle][dR]-X2)	pKi	5.43
CCCC[C@@H](NC(=O)[C@@H](Cc1ccccc1)NC(=O)[C@H](N)Cc1ccccc1)C(=O)N[C@H](CCCNC(=N)N)C(=O)N1CCSCC1 [Peptide 10, H-D-Phe-D-Phe-D-Nle-D-Arg-Tmo] (H-[dF][dF][dNle][dR]-X1)	pKi	5.65
CC(C)C[C@@H](NC(=O)[C@@H](Cc1ccccc1)NC(=O)[C@H](N)Cc1ccccc1)C(=O)N[C@H](CCCN)C(=O)N1CCOCC1 [Peptide 57, H-D-Phe-D-Phe-D-Leu-D-Onn-Mor]	pKi	5.28

pKi in this record for CCCC[C@@H](NC(=O)[C@@H](Cc1ccccc1)NC(=O)[C@H](N)Cc1ccccc1)C(=O)N[C@H](CCCNC(=N)N)C(=O)NC1CC1 [Peptide 5, H-D-Phe-D-Phe-D-Nle-D-Arg-NH(Cyp)] (H-[dF][dF][dNle][dR]-NHcPr) : 5.45

pKi in this record for CCCC[C@@H](NC(=O)[C@@H](Cc1ccccc1)NC(=O)[C@H](N)Cc1ccccc1)C(=O)N[C@H](CCCNC(=N)N)C(=O)NCc1cccnc1 [Peptide 54, H-D-Phe-D-Phe-D-Nle-D-Arg-NH(3Pic)] (H-[dF][dF][dNle][dR]-{NH(3-picolyl)}) : 5.91

pKi in this record for CCCC[C@@H](NC(=O)[C@@H](Cc1ccccc1)NC(=O)[C@H](N)Cc1ccccc1)C(=O)N[C@H](Cc1ccc(CNC(=N)N)cc1)C(=O)N1CCOCC1 [Peptide 58, H-D-Phe-D-Phe-D-Nle-D-Gmf-Mor] : 5.52

###

log10 Ki tested on cloned human mu opioid (hMOR) receptor (Homo sapiens): recorded values
Where a SMILES comes first, the peptide text is derived from it. [ ]: non-standard residue; d: D form. The star is where a group is joined. dPhe(4-Cl) = N[C@H](Cc1ccc(Cl)cc1)C(=O)O; NH(thiazol-2-yl) = c1csc(N*)n1; d2Thi = N[C@H](Cc1cccs1)C(=O)O; NH(4-picolyl) = c1cc(CN*)ccn1; N(CH2CH2)2NH = C1CN(*)CCN1; dNle = CCCC[C@@H](N)C(=O)O; Morpholide = C1CN(*)CCO1; NHBn = c1ccc(CN*)cc1
All values: base-10 log of Ki in nM.

As a guide, the following entries are already answered.
molecule	targetOfAssay	recordedValue
CCCC[C@@H](NC(=O)[C@@H](Cc1ccccc1)NC(=O)[C@H](N)Cc1ccccc1)C(=O)N[C@H](CCCNC(=N)N)C(=O)NCc1ccccc1 [Peptide 14, H-D-Phe-D-Phe-D-Nle-D-Arg-NHBzl] (H-[dF][dF][dNle][dR]-NHBn)	cloned human mu opioid (hMOR) receptor (Homo sapiens)	2.95
CCCC[C@@H](NC(=O)[C@@H](Cc1ccccc1)NC(=O)[C@H](N)Cc1ccccc1)C(=O)N[C@H](CCCNC(=N)N)C(=O)NC [Peptide 2, H-D-Phe-D-Phe-D-Nle-D-Arg-NHMe] (H-[dF][dF][dNle][dR]-NHMe)	cloned human mu opioid (hMOR) receptor (Homo sapiens)	3.56
CCCC[C@@H](NC(=O)[C@@H](Cc1ccccc1)NC(=O)[C@H](N)Cc1ccccc1)C(=O)N[C@H](CCCNC(=N)N)C(=O)Nc1nccs1 [Peptide 13, H-D-Phe-D-Phe-D-Nle-D-Arg-NH(2-Tzl)] (H-[dF][dF][dNle][dR]-{NH(thiazol-2-yl)})	cloned human mu opioid (hMOR) receptor (Homo sapiens)	3.20

log10 Ki in this record for CC(C)C[C@@H](NC(=O)[C@@H](Cc1ccc(Cl)cc1)NC(=O)[C@H](N)Cc1cccs1)C(=O)N[C@H](CCCNC(=N)N)C(=O)NCc1ccncc1 [Peptide 64] (H-[d2Thi][dPhe(4-Cl)][dL][dR]-{NH(4-picolyl)}) : 3.38

log10 Ki in this record for CCCC[C@@H](NC(=O)[C@@H](Cc1ccccc1)NC(=O)[C@H](N)Cc1ccccc1)C(=O)N[C@H](CCCNC(=N)N)C(=O)N1CCOCC1 [Peptide 6, H-D-Phe-D-Phe-D-Nle-D-Arg-Mor] (H-[dF][dF][dNle][dR]-Morpholide) : 3.40

log10 Ki in this record for CCNC(=O)[C@@H](CCCN)NC(=O)[C@@H](CC(C)C)NC(=O)[C@@H](Cc1ccccc1)NC(=O)[C@H](N)Cc1ccccc1 [Peptide 56, H-D-Phe-D-Phe-D-Leu-D-Orn-NHEt] : 3.62

log10 Ki in this record for CCCC[C@@H](NC(=O)[C@@H](Cc1ccccc1)NC(=O)[C@H](N)Cc1ccccc1)C(=O)N[C@H](CCCNC(=N)N)C(=O)NCC [Peptide 1, H-D-Phe-D-Phe-D-Nle-D-Arg-NHEt] (H-[dF][dF][dNle][dR]-NHEt) : 3.28

log10 Ki in this record for CCCC[C@@H](NC(=O)[C@@H](Cc1ccccc1)NC(=O)[C@H](N)Cc1ccccc1)C(=O)N[C@H](CCCNC(=N)N)C(=O)N1CCNCC1 [Peptide 15, H-D-Phe-D-Phe-D-Nle-D-Arg-Ppz] (H-[dF][dF][dNle][dR]-{N(CH2CH2)2NH}) : 3.96
